Where do these numbers come from? They come from patent US20230115176A1.

experimentalTarget: Human C5 (Homo sapiens)
Construct: purchased Complement Technology
Sequence (P01031 19-1676): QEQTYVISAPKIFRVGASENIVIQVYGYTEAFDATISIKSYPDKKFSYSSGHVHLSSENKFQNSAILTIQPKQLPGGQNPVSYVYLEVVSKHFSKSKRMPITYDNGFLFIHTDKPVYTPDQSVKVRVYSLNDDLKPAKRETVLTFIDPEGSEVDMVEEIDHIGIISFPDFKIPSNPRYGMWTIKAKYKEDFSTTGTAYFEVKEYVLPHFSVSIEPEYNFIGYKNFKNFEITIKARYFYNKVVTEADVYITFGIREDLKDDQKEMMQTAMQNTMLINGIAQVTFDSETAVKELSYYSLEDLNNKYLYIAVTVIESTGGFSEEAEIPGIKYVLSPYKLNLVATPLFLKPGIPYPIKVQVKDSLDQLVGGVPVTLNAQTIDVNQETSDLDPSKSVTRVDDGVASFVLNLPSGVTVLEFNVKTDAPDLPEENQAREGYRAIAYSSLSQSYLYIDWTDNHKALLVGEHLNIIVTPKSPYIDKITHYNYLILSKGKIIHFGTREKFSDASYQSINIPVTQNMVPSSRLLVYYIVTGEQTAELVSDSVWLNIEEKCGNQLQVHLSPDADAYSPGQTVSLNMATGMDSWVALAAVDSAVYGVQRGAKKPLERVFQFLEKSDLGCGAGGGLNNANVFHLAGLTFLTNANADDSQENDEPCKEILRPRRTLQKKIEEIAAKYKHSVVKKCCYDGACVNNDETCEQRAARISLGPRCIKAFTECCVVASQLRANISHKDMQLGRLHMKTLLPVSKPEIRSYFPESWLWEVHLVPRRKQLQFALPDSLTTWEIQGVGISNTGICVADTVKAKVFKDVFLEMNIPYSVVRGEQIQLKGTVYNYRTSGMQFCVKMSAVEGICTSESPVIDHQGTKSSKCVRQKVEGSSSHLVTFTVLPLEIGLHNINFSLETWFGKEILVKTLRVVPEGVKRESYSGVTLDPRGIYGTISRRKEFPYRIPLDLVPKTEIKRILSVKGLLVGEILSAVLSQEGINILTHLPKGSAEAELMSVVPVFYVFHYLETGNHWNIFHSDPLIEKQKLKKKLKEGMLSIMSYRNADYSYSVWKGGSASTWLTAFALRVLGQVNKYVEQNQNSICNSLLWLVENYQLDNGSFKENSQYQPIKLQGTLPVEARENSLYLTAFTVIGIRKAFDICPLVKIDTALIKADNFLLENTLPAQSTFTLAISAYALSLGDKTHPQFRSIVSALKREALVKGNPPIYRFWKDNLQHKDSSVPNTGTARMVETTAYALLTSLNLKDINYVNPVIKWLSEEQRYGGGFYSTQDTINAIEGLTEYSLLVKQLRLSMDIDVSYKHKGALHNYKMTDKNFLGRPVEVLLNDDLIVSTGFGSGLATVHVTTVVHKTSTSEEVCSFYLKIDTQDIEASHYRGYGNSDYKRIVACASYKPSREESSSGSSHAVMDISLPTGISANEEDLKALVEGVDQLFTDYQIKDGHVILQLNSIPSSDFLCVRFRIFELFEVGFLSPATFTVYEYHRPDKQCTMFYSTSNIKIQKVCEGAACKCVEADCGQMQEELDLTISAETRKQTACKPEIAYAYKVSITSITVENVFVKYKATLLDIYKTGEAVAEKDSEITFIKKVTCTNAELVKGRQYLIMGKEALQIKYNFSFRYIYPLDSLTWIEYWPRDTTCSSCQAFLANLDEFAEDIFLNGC
procedureSummary: Red blood cell (RBC) hemolysis assay, luminescent (Example 28, Table 32)
Assay type: cell-based
conditions: sheep EA cells, 1.5% C5-depleted human serum, 0.5 nM human C5, 1 hour at 37° C., luminescence (Table 32)
reportedMetric: IC50 (nM)
Give bare numbers, in nM.

Use the examples below as a reference point.
molecule: CCCCCOc1cc(N2CC[C@H](C)N(Cc3ccnc4c3c(Cl)cn4CC(=O)N3CC(C)(O)C3)C2=O)ccc1OC [SC0111]
unitInfo: nM
IC50: 1.3

molecule: CCCCCOc1cc(N2C[C@@H](C)CN(Cc3ccc(CC(=O)N(C)C)cc3OC)C2=O)ccc1OC [SC0210]
unitInfo: nM
IC50: 15.1

molecule: CCCCCOc1cc(N2CC[C@@H](C)N(Cc3cccc4c3c(Cl)cn4CC(=O)N(C)C)C2=O)ccc1OC [SC0110]
unitInfo: nM
IC50: 1.3

molecule: CCCCCOc1cc(N2CC(CO)CN(Cc3ccc(CC(=O)N4CCCC4)cc3OC)C2=O)ccc1OC (centres unmarked) [SC0184]
unitInfo: nM
IC50: 5.7

molecule: COc1ccc(N2CC[C@H](C)N(Cc3cccc4c3ccn4CC(=O)N3CCOCC3)C2=O)cc1OCCCC1CC1 [SC0164]
unitInfo: nM
IC50: 2.9

Each molecule below has a reported value. Please supply its IC50.
1. CCCCCOc1cc(N2CC[C@@H](C)N(Cc3cccc4c3ccn4S(=O)(=O)c3ccc(C)cc3)C2=O)ccc1OC [SC0230]
2. CCCCCOc1cc(N2CC[C@H](C)N(Cc3cccc4c3ccn4CC(=O)N(C)CC#N)C2=O)ccc1OC [SC0168]
3. CCCCCOc1cc(N2CC[C@H](C)N(Cc3ccnc4c3c(Cl)cn4CC(=O)N3CCNC(=O)C3)C2=O)ccc1OC [SC0106]

Out:
1: 703; 2: 3.3; 3: 1.1

Each molecule below has a reported value. Please supply its IC50.
1. CCCCCOc1cc(N2CC(COCc3ccccc3)CN(Cc3ccc(Br)cc3OC)C2=O)ccc1OC (centres unmarked) [SC0232]
2. CCCCCOc1cc(N2CC[C@H](C)N(Cc3ccnc4c3c(Cl)cn4CC(=O)N3CC[C@H](N4CCOCC4)C3)C2=O)ccc1OC [SC0100]
3. COc1cc(CC(=O)N(C)[C@@H]2CCN(C(=O)OC(C)(C)C)C2)ccc1CN1C(=O)N(c2ccc(OC)c(OCCCC3CC3)c2)CC[C@@H]1C [SC0202]
4. CCCCCOc1cc(N2C[C@@H](C(=O)NC)CN(Cc3cc(F)ccc3OC)C2=O)ccc1OC [SC0223]
5. CCCCCOc1cc(N2C[C@H](C)CN(Cc3ccc(CC(=O)N4CCOCC4)cc3OC)C2=O)ccc1OC [SC0193]
6. CCCCCOc1cc(N2CC(CO)CN(Cc3ccc(CC(=O)N(C)C)cc3OC)C2=O)ccc1OC (centres unmarked) [SC0172]
7. COc1cc(CC(=O)N[C@@H]2CNC[C@@H]2F)ccc1CN1C(=O)N(c2ccc(OC)c(OCCCC3CC3)c2)CC[C@@H]1C [SC0130]

Out:
1. 3120
2. 0.9
3. 10.1
4. 96.9
5. 8.3
6. 3.8
7. 1.7

Each molecule below has a reported value. Please supply its IC50.
1. CCCCCOc1cc(N2CC(CO)CN(Cc3ccc(CC(=O)N4CCCOCC4)cc3OC)C2=O)ccc1OC (centres unmarked) [SC0190]
2. CCCCCOc1cc(N2CC[C@H](C)N(Cc3cccc4c3c(Cl)cn4CC(=O)N(C)C)C2=O)ccc1OC [SC0112]

Out:
1: 7.1; 2: 1.3

* * *

experimentalTarget: purified human C5 (Homo sapiens, UniProt P01031)
Sequence (P01031 19-1676): as above
procedureSummary: Red blood cell hemolysis assay, optical, absorbance 412 nm (Example 3, Table 6)
Format: cell-based
conditions: antibody-sensitized sheep erythrocytes, 1.5% human C5 depleted sera, 0.5 nM human C5; average where replicates
Criterion: IC50 strictly under 3000 nM. Met: class 1. Not met: class 0.

compound: COc1ccc(NC(=O)NCC(O)c2ccccc2)cc1OCCCC(C)C (centres unmarked) [SM0081]
experimentalTarget: purified human C5 (Homo sapiens, UniProt P01031)
assignedClass: class 0

In: Given COc1ccc(NC(=O)NC(CO)c2ccccc2F)cc1CCCCC(C)C (centres unmarked) [SM0029] , is recorded IC50 strictly lower than 3000 nM?
Out: class 1

In: Given COc1cc(CNC(=O)Nc2ccc(OC)c(OCCCC(C)C)c2)ccc1O [SM0030] , is recorded IC50 strictly lower than 3000 nM?
Out: class 1

In: Given COc1ccc(NC(=O)NCc2ccsc2)cc1OCCCC(C)C [SM0039] , is recorded IC50 strictly lower than 3000 nM?
Out: class 1

In: Given COc1ccc(NC(=O)NCc2ccc3ccccc3n2)cc1OCCCC(C)C [SM0086] , is recorded IC50 strictly lower than 3000 nM?
Out: class 0

In: Given COc1ccc(NC(=O)Nc2ccccc2O)cc1OCCCC(C)C [SM0069] , is recorded IC50 strictly lower than 3000 nM?
Out: class 0

In: Given COc1ccc(NC(=O)N[C@@H](CO)c2ccccc2)cc1OCCOC(C)C [SM0083] , is recorded IC50 strictly lower than 3000 nM?
Out: class 0

* * *

procedureSummary: Kinetic solubility in PBS pH 7.4, HPLC-UV (Example 21, Table 27)
Type: physicochemical
conditions: phosphate buffered saline, aqueous buffer, kinetic from dmso stock, 0.5 M PBS, shaken minimum 24 h at approximately 25° C., HPLC-UV 270 nm
reportedMetric: solubility kinetic (µM)
Numbers only, in µM.

Use the examples below as a reference point.
compound: CCCCCOc1cc(N2CCCN(Cc3cccc4c3ccn4[C@H]3CCN(C)C3=O)C2=O)ccc1OC [CU0644]
unitInfo: µM
solubility kinetic: 450
//
compound: CCCCCOc1cc(N2CC[C@H](C)N(Cc3ccnc4c3c(Cl)cn4CC(=O)N3CCNC(=O)C3)C2=O)ccc1OC [SC0106]
unitInfo: µM
solubility kinetic: 119
//
compound: COc1ccc(N2CC[C@H](C)N(Cc3cccc4c3ccn4CC(=O)N(C)C)C2=O)cc1OCCCC1CC1 [SC0174]
unitInfo: µM
solubility kinetic: 40

Field: next compound
In: Quick one: solubility kinetic for CCCCCOc1cc(N2CCCN(Cc3ccnc4c3c(Cl)cn4CCN3CCS(=O)(=O)CC3)C2=O)ccc1OC [CU0551] ?
Out: 12

* * *

experimentalTarget: Human C5 (Homo sapiens)
Construct: purchased Complement Technology
procedureSummary: Hemolysis assay, luminescent, classical complement pathway (Example 4, Table 7)
Assay type: cell-based
conditions: sheep EA cells, 1.5% C5-depleted human serum, 0.5 nM human C5, luminescence readout
reportedMetric: IC50
# answer = value followed by unit

molecularString: CCCCCOc1cc(NC(=O)N(CC(N)=O)Cc2cc(F)ccc2OC)ccc1OC
experimentalTarget: Human C5 (Homo sapiens)
IC50: 903 nM

molecularString: COc1ccc(NC(=O)N[C@H]2COC(C)(C)Oc3c(OC)cccc32)cc1OCCCC(C)C
experimentalTarget: Human C5 (Homo sapiens)
IC50: 48.6 nM

Each compound below has a reported value. Please supply its IC50.
1. CCCCCOc1cc(NC(=O)N(CCOCc2cn(C)cn2)Cc2cc(F)ccc2OC)ccc1OC
2. C#CC(=O)NCc1cc(OC)c(OCCCCC)cc1NC(=O)N1CCC[C@@H]1c1ccccc1Cl

Out:
210 nM
89.5 nM

* * *

Could you please report measured pIC50 for the items listed next?
experimentalTarget: purified human C5 (Homo sapiens, UniProt P01031)
procedureSummary: Red blood cell hemolysis assay, optical, absorbance 412 nm (Example 3, Table 6)
Format: cell-based
conditions: antibody-sensitized sheep erythrocytes, 1.5% human C5 depleted sera, 0.5 nM human C5; average where replicates
Numbers only, as −log10 of the molar value.

Use the examples below as a reference point.
molecule: COc1ccc(NC(=O)NCc2cccnc2)cc1OCCCC(C)C
recordedValue: 5.55
//
molecule: COc1ccc(NC(=O)NC(CO)c2cnn(C)c2)cc1OCCCC(C)C (stereo not shown)
recordedValue: 5.46
//
molecule: COc1ccc(NC(=O)N[C@@H](CO)c2ccccc2)cc1OCc1ccccc1
recordedValue: 4.73
//
molecule: COc1ccc(NC(=O)N[C@@H](CO)c2ccccc2)cc1CCCCC(C)C
recordedValue: 6.65
//
molecule: COc1ccc(NC(=O)N[C@@H](CO)c2ccccc2)cc1OCCCCC(F)(F)F
recordedValue: 6.17
//
molecule: COc1ccc(NC(=O)N[C@@H](COC(N)=O)c2ccccc2)cc1OCCCC(C)C
recordedValue: 5.13
//
molecule: COc1ccc(NC(=O)N[C@@H](CO)c2ccccc2OC)cc1OCCCC(C)C
recordedValue: 7.66
//
molecule: COc1ccc(NC(=O)NC(CO)c2ccccn2)cc1OCCCC(C)C (stereo not shown)
recordedValue: 5.79
//
molecule: COc1ccc(NC(=O)NC(c2ccccc2F)C(C)O)cc1OCCCC(C)C (stereo not shown)
recordedValue: 4.84
//
molecule: COc1ccc(NC(=O)N[C@@H](CO)c2ccc(F)cc2)cc1OCCCC(C)C
recordedValue: 6.22

Each molecule below has a reported value. Please supply its pIC50.
1. COc1ccc(NC(=O)NCc2cccc3ncccc23)cc1OCCCC(C)C
2. COc1ccc(NC(=O)NCC(O)c2ccc(O)cc2)cc1OCCCC(C)C (stereo not shown)
3. COc1ccc(NC(=O)NC(CO)c2ccccc2OC)cc1OCCCC(C)C (stereo not shown)
4. COc1ccc(NC(=O)N[C@@H](CO)c2ccccc2)cc1OCCCCCC(C)C
5. COc1ccc(NC(=O)N(C)Cc2ccccc2)cc1OCCCC(C)C
6. COc1ccc([C@H](CO)NC(=O)Nc2ccc(OC)c(OCCCC(C)C)c2)cc1
7. COc1ccc(NC(=O)NCc2ccnc3[nH]ccc23)cc1OCCCC(C)C
8. COc1ccc(NC(=O)NCc2cccc(O)c2)cc1OCCCC(C)C

Out:
1. 5.66
2. 5.03
3. 7.57
4. 5.96
5. 6.27
6. 6.76
7. 6.49
8. 6.42

In: Quick one: pIC50 for COc1ccc(NC(=O)NCc2ccncc2)cc1OCCCC(C)C ?
Out: 6.01
